MEASURED TARGET: purified recombinant human GAC (GLS1) (Homo sapiens (Human), UniProt O94925)
Sequence (O94925 other isoform, or with tags, fused parts or gaps): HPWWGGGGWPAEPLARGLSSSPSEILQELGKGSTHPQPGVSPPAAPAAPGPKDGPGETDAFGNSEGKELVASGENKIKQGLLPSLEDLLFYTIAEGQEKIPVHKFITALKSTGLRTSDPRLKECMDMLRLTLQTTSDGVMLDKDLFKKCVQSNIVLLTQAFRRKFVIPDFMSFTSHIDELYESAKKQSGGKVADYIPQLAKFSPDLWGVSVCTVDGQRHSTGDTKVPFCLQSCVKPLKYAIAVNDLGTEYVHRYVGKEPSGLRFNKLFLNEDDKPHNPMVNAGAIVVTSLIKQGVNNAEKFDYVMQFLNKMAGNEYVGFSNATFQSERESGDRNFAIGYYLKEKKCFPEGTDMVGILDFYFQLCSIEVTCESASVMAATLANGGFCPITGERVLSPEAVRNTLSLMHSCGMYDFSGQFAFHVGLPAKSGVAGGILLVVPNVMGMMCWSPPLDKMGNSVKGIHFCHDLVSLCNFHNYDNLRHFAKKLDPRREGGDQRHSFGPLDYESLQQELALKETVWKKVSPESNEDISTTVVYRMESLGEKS
MEASUREMENT PROTOCOL: GLS1 Enzymatic Activity Assay (dual-coupled enzymatic assay, resorufin/Amplex UltraRed readout)
TEST READOUT: IC50

Solved entries (count: 6):
[[record]]
compound = "O=C(NCC(F)(F)F)c1cn(CC(F)CCc2nnc(C(=O)NCc3cc(C(F)(F)F)ccn3)s2)nn1 (stereo not drawn)"
value_reported = "100 to 500 nM"

[[record]]
compound = "CNC(=O)c1nnc(CCC(F)Cn2cc(C(=O)NCc3ccccn3)nn2)s1 (stereo not drawn)"
value_reported = "500 to 5000 nM"

[[record]]
compound = "O=C(NCc1cc(OC(F)(F)F)ccc1F)c1cn(CCC(F)Cn2cc(C(=O)NCc3cncc(C(F)(F)F)c3)nn2)nn1 (stereo not drawn)"
value_reported = "< 100 nM"

[[record]]
compound = "Cc1ccc(CNC(=O)c2cn(CCC(F)Cn3cc(C(=O)NCc4cc(OC(F)(F)F)ccc4F)nn3)nn2)cn1 (stereo not drawn)"
value_reported = "< 100 nM"

[[record]]
compound = "CC(C)(C)OC(=O)NCc1cccc(CNC(=O)c2cn(CCCCn3cc(C(=O)NCc4cc(C(F)(F)F)ccn4)nn3)nn2)c1"
value_reported = "< 100 nM"

[[record]]
compound = "O=C(NCc1cccc(Cl)c1)c1cn(CCCCn2cc(C(=O)NCc3cc(C(F)(F)F)ccn3)nn2)nn1"
value_reported = "< 100 nM"


Look up IC50 for this compound: O=C(NCC1CCCCO1)c1cn(CCC(F)Cn2cc(C(=O)NCc3cc(C(F)(F)F)ccn3)nn2)nn1 (stereo not drawn)
100 to 500 nM

Would you mind telling me what IC50 value was observed for O=C(NCC1CCCOC1)c1cn(CCC(F)Cn2cc(C(=O)NCc3cc(C(F)(F)F)ccn3)nn2)nn1 (stereo not drawn) ?
100 to 500 nM

Sample O=C(NCc1cccc(OC(F)(F)F)c1)c1cn(CCCCn2cc(C(=O)NCC3CC4CCC3O4)nn2)nn1 (stereo not drawn) [Example 115] — what was its IC50?
500 to 5000 nM

Any idea what IC50 was measured for CNC(=O)c1cn(CCCCc2ccc(NC(=O)Cc3cccc(C4CCOCC4)c3)nn2)nn1 ?
< 100 nM

----------
As shown below, each of these molecules has a reported pIC50 value.
MEASURED TARGET: purified recombinant human GAC (GLS1) (Homo sapiens (Human), UniProt O94925)
MEASUREMENT PROTOCOL: GLS1 Enzymatic Activity Assay (dual-coupled enzymatic assay, resorufin/Amplex UltraRed readout);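 also: glutamate from GAC coupled via glutamate oxidase and peroxidase to resorufin, read as fluorescence (ex 530, em 590 nm) kinetically or at 20 min, four-parameter logistic IC50 fit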
pIC50: −log10 of the molar value.

Here are 10 molecules together with their reported answers.
[[record]]
molecule = "O=C(Cc1cccc(F)n1)Nc1nnc(CCC(F)Cn2cc(C(=O)NCc3cc(OC(F)(F)F)ccc3F)nn2)s1 (stereo not drawn)"
value_reported = "> 7.00"

[[record]]
molecule = "O=C(Cc1cc(OC(F)(F)F)ccc1F)Nc1cn(CC(F)CCn2cc(C(=O)NCc3ccc(C(F)(F)F)nc3)nn2)nn1 (stereo not drawn)"
value_reported = "> 7.00"

[[record]]
molecule = "O=C(NCc1cccc(C(F)(F)F)c1)c1cn(CC(F)CCc2nnc(C(=O)NCc3cncc(C(F)(F)F)c3)s2)nn1 (stereo not drawn)"
value_reported = "> 7.00"

[[record]]
molecule = "Cc1ccc(CNC(=O)c2nnc(CCCCn3cc(C(=O)NCC4CC4)nn3)s2)cn1"
value_reported = "5.30 to 6.30"

[[record]]
molecule = "O=C(NCc1cc(C2CC2)ccn1)c1cn(CCC(F)Cn2cc(C(=O)NCc3cncc(C(F)(F)F)c3)nn2)nn1 (stereo not drawn)"
value_reported = "> 7.00"

[[record]]
molecule = "CNC(=O)c1cn(CCC(F)Cn2cc(C(=O)NCc3cncc(C(F)(F)F)c3)nn2)nn1 (stereo not drawn)"
value_reported = "6.30 to 7.00"

[[record]]
molecule = "Cc1ccc(CNC(=O)c2cn(CC(F)CCn3cc(C(=O)NCc4cc(OC(F)(F)F)ccc4F)nn3)nn2)cn1 (stereo not drawn)"
value_reported = "> 7.00"

[[record]]
molecule = "O=C(NCc1cccc(C2CC2)c1)c1cn(CCCCn2cc(C(=O)NCc3cc(C4CC4)ccn3)nn2)nn1"
value_reported = "> 7.00"

[[record]]
molecule = "CC(=O)Nc1ccc(CCCCn2cc(C(=O)NCc3cccc(OC(F)(F)F)c3)nn2)nn1"
value_reported = "> 7.00"

[[record]]
molecule = "CNC(=O)c1cn(CCCCc2ccc(NC(=O)CN3CCN(c4ccc(OC(F)(F)F)cc4)CC3)nn2)nn1"
value_reported = "> 7.00"


Query the reported pIC50 for purified recombinant human GAC (GLS1) (Homo sapiens (Human), UniProt O94925); item: O=C(Cc1cc(OC(F)(F)F)ccc1F)Nc1cn(CCC(F)Cn2cc(C(=O)NCc3cc(C(F)(F)F)ccn3)nn2)nn1 (stereo not drawn)
> 7.00

What pIC50 appears in the records for this molecule with purified recombinant human GAC (GLS1) (Homo sapiens (Human), UniProt O94925)? CNC(=O)c1nnc(CCCCc2ccc(NC(=O)Cc3cc(C(F)(F)F)ccn3)nn2)s1
> 7.00

Kindly state the measured pIC50 obtained for O=C(CC1CCCCC1)Nc1cn(CCCCn2cc(C(=O)NCc3ccccn3)nn2)nn1 with purified recombinant human GAC (GLS1) (Homo sapiens (Human), UniProt O94925).
6.30 to 7.00

Please state recorded pIC50 (tested on purified recombinant human GAC (GLS1) (Homo sapiens (Human), UniProt O94925)) of O=C(Cc1cccc(OC(F)(F)F)c1)Nc1cn(CC(F)CCn2cc(C(=O)NCc3ccc(C(F)(F)F)cn3)nn2)nn1 (stereo not drawn)
> 7.00

API: value(readout= pIC50, system= purified recombinant human GAC (GLS1) (Homo sapiens (Human), UniProt O94925), query= O=C(CC1CCCC1)Nc1cn(CCCCn2cc(C(=O)NCc3cccnc3)nn2)nn1 )
6.30 to 7.00
